Each recorded value in this set is attributed to patent US5959123A.

Each entry below carries its measured IC50, system: cathepsin L (Rattus norvegicus, UniProt P07154).
Sequence (P07154 114-334): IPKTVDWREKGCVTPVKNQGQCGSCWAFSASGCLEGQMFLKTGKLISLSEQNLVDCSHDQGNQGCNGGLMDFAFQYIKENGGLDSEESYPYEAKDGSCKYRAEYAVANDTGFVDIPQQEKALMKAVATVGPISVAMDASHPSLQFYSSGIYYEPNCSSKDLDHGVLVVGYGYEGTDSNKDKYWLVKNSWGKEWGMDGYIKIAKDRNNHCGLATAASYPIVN
# unit: nM | format: bare number

Query: IC50; subject: CC(=O)O[C@@H]1NC(=O)[C@H]1NC(=O)C1Cc2ccccc2N1C(=O)OCc1ccccc1 (stereo partly drawn) [Example 1] 26700

Query: IC50; subject: Cc1cccc(O[C@H]2NC(=O)[C@H]2NC(=O)[C@H](Cc2ccc3ccccc3c2)NC(=O)OCc2ccccc2)c1 [Example 12B] 0.4

Query: IC50; subject: O=C(CCc1ccccc1)NC(Cc1ccc2ccccc2c1)C(=O)NC1C(=O)NC1S(=O)(=O)c1ccccc1 (stereo not drawn) [Example 16] 8.6

###

- tested_target: UniProt P00787
- Sequence (P00787 80-333 limits assumed): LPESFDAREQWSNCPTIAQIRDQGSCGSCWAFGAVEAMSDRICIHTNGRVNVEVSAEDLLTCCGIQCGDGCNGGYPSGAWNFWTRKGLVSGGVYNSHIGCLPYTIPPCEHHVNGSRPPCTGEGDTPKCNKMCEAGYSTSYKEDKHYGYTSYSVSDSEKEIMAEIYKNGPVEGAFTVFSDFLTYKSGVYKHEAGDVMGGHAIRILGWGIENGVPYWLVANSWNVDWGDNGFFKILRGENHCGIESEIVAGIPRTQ
Answer each item with its documented pIC50.
Schema: pIC50 number; meaning minus log10 of the concentration expressed in molar units.

Query: pIC50; subject: CC(=O)O[C@@H]1NC(=O)[C@H]1NC(=O)[C@H](Cc1cccc(F)c1)NC(=O)OCc1ccccc1 [Example 9] 4.72

Query: pIC50; subject: O=C(N[C@@H](Cc1ccc2ccccc2c1)C(=O)N[C@@H]1C(=O)N[C@H]1Oc1ccccc1)OCc1ccccc1 [Example 11] 6.05

Query: pIC50; subject: CC(=O)O[C@@H]1NC(=O)[C@H]1NC(=O)C(Cc1cccs1)NC(=O)OCc1ccccc1 (mixture of isomers) [Example 7] 4.54

Query: pIC50; subject: O=C(N[C@@H](Cc1ccc2ccccc2c1)C(=O)N[C@@H]1C(=O)N[C@H]1Oc1ccc2ccccc2c1)OCc1ccccc1 [Example 13A] 5.74

Query: pIC50; subject: Cc1cccc(O[C@H]2NC(=O)[C@H]2NC(=O)[C@H](Cc2ccc3ccccc3c2)NC(=O)OCc2ccccc2)c1 [Example 12B] 7.10

Query: pIC50; subject: COc1ccc(C[C@H](NC(=O)OCc2ccccc2)C(=O)N[C@@H]2C(=O)N[C@H]2OC(C)=O)cc1 [Example 10] 5.12

Query: pIC50; subject: CC(=O)O[C@@H]1NC(=O)[C@H]1NC(=O)[C@H](CCCNC(N)=O)NC(=O)CCc1ccccc1 [Example 23] 4.96

Query: pIC50; subject: Cc1cccc(O[C@@H]2NC(=O)[C@H]2NC(=O)[C@H](Cc2ccc3ccccc3c2)NC(=O)OCc2ccccc2)c1 [Example 12A] 6.42

Query: pIC50; subject: O=C(CCc1ccccc1)NC(Cc1ccc2ccccc2c1)C(=O)NC1C(=O)NC1S(=O)(=O)c1ccccc1 (stereo not shown) [Example 16] 5.80
